Source listed as the supplement of paper PMC6555819.

Below, each of the sequences is paired with its reported PBM binding z-score value.
- Tested on: PPARg:RXRa 270nM:90nM, anti-RXR (NR concentration 270 nM, RXRa partner concentration 90 nM)
- test.method.notes: PBM binding z-score (relative to random genomic background probes); higher = stronger binding; sequences stand for … in GC…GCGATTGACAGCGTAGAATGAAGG
Please give the numeric answer without any surrounding text.

Example sequences with recorded PBM binding z-score:
ATCTCTAGGTAACAAAGTTCAGTGAATGCCGAAC ... 3.09
ACAAGTTGGTCAGCTGAGGTCACACACAATTCGG ... 2.38
TCGCCTAGGTCATTCAGGGGCCAGTATAGAAAGC ... 2.45
CCTGACGGGTCACGAGGTTATAGCACGACGAGCG ... 5.6
GCGACTGGGGCAAAGCAGGTTACCCTAAGGTTGG ... 1.52
ACTTACGGGTCATCGAGGTTATAGCACGCGTATA ... 5.54

Prompt: Param item = CCTTACGGGTCAAGATTATAGCACGGGTGGTACG ; retrieve measured PBM binding z-score.
Response: 3.6
